- Recorded Conditions: in toluene, 303.15 K
Metric Name: solubility (mole fraction)

                                   compound  result_value
0  NCC(CC(=O)O)c1ccc(Cl)cc1 (stereo unspecified)       0.00749

====

- Recorded Conditions: in 2-butanone, 278.15 K
Metric Name: solubility (mole fraction)

In [3]: df
Out[3]:
                                   compound                 metric_name  result_value
0  NCC(CC(=O)O)c1ccc(Cl)cc1 (stereo unspecified)  solubility (mole fraction)      0.000475

====

- Recorded Conditions: in n-butanol, 298.15 K
Metric Name: solubility (mole fraction)

                                   compound                 metric_name  result_value
0  NCC(CC(=O)O)c1ccc(Cl)cc1 (stereo unspecified)  solubility (mole fraction)      8.34e-05

====

- Recorded Conditions: in 2-butanone, 288.15 K
Metric Name: solubility (mole fraction)

In [3]: df
Out[3]:
                                   compound                 metric_name  result_value
0  NCC(CC(=O)O)c1ccc(Cl)cc1 (stereo unspecified)  solubility (mole fraction)      0.000579

====

- Recorded Conditions: in acetone, 288.15 K
Metric Name: solubility (mole fraction)

In [3]: df
Out[3]:
                                   molecule                 metric_name  result_value
0  NCC(CC(=O)O)c1ccc(Cl)cc1 (stereo unspecified)  solubility (mole fraction)      0.000258

====

- Recorded Conditions: in 1,4-dioxane, 308.15 K
Metric Name: solubility (mole fraction)

>>> df
                                   compound  result_value
0  NCC(CC(=O)O)c1ccc(Cl)cc1 (stereo unspecified)      0.000788

====

- Recorded Conditions: in toluene, 293.15 K
Metric Name: solubility (mole fraction)

In [3]: df
Out[3]:
                                   compound  result_value
0  NCC(CC(=O)O)c1ccc(Cl)cc1 (stereo unspecified)       0.00673

====

- Recorded Conditions: in DMF, 298.15 K
Metric Name: solubility (mole fraction)

>>> print(df.to_string())
                                   molecule  result_value
0  NCC(CC(=O)O)c1ccc(Cl)cc1 (stereo unspecified)         0.108

====

- Recorded Conditions: in toluene, 298.15 K
Metric Name: solubility (mole fraction)

                                   molecule                 metric_name  result_value
0  NCC(CC(=O)O)c1ccc(Cl)cc1 (stereo unspecified)  solubility (mole fraction)       0.00709

====

- Recorded Conditions: in ethanol, 273.15 K
Metric Name: solubility (mole fraction)

>>> print(df.to_string())
                                   compound                 metric_name  result_value
0  NCC(CC(=O)O)c1ccc(Cl)cc1 (stereo unspecified)  solubility (mole fraction)      1.95e-05

====

- Recorded Conditions: in ethanol, 293.15 K
Metric Name: solubility (mole fraction)

                                   compound  result_value
0  NCC(CC(=O)O)c1ccc(Cl)cc1 (stereo unspecified)       3.4e-05

====

- Recorded Conditions: in toluene, 273.15 K
Metric Name: solubility (mole fraction)

                                   compound  result_value
0  NCC(CC(=O)O)c1ccc(Cl)cc1 (stereo unspecified)        0.0054

====

- Recorded Conditions: in methanol, 283.15 K
Metric Name: solubility (mole fraction)

                                   compound  result_value
0  NCC(CC(=O)O)c1ccc(Cl)cc1 (stereo unspecified)      0.000124

====

- Recorded Conditions: in ethanol, 318.15 K
Metric Name: solubility (mole fraction)

                                   compound  result_value
0  NCC(CC(=O)O)c1ccc(Cl)cc1 (stereo unspecified)      5.86e-05

====

- Recorded Conditions: in DMF, 318.15 K
Metric Name: solubility (mole fraction)

In [3]: df
Out[3]:
                                   molecule  result_value
0  NCC(CC(=O)O)c1ccc(Cl)cc1 (stereo unspecified)         0.117

====

- Recorded Conditions: in n-butanol, 283.15 K
Metric Name: solubility (mole fraction)

                                   compound  result_value
0  NCC(CC(=O)O)c1ccc(Cl)cc1 (stereo unspecified)      6.61e-05

====

- Recorded Conditions: in ethanol, 278.15 K
Metric Name: solubility (mole fraction)

>>> df
                                   molecule  result_value
0  NCC(CC(=O)O)c1ccc(Cl)cc1 (stereo unspecified)      2.23e-05

====

- Recorded Conditions: in isopropanol, 303.15 K
Metric Name: solubility (mole fraction)

In [3]: df
Out[3]:
                                   compound  result_value
0  NCC(CC(=O)O)c1ccc(Cl)cc1 (stereo unspecified)      6.67e-05

====

- Recorded Conditions: in 1,4-dioxane, 288.15 K
Metric Name: solubility (mole fraction)

>>> print(df.to_string())
                                   compound  result_value
0  NCC(CC(=O)O)c1ccc(Cl)cc1 (stereo unspecified)      0.000519

====

- Recorded Conditions: in DMAc, 318.15 K
Metric Name: solubility (mole fraction)

                                   molecule                 metric_name  result_value
0  NCC(CC(=O)O)c1ccc(Cl)cc1 (stereo unspecified)  solubility (mole fraction)         0.105

====

- Recorded Conditions: in ethyl acetate, 273.15 K
Metric Name: solubility (mole fraction)

>>> print(df.to_string())
                                   compound                 metric_name  result_value
0  NCC(CC(=O)O)c1ccc(Cl)cc1 (stereo unspecified)  solubility (mole fraction)       0.00412

====

- Recorded Conditions: in n-propanol, 298.15 K
Metric Name: solubility (mole fraction)

In [3]: df
Out[3]:
                                   molecule                 metric_name  result_value
0  NCC(CC(=O)O)c1ccc(Cl)cc1 (stereo unspecified)  solubility (mole fraction)      5.35e-05

====

- Recorded Conditions: in DMAc, 293.15 K
Metric Name: solubility (mole fraction)

                                   compound                 metric_name  result_value
0  NCC(CC(=O)O)c1ccc(Cl)cc1 (stereo unspecified)  solubility (mole fraction)        0.0982

====

- Recorded Conditions: in acetone, 298.15 K
Metric Name: solubility (mole fraction)

                                   compound  result_value
0  NCC(CC(=O)O)c1ccc(Cl)cc1 (stereo unspecified)      0.000289

====

- Recorded Conditions: in 2-butanone, 308.15 K
Metric Name: solubility (mole fraction)

                                   compound                 metric_name  result_value
0  NCC(CC(=O)O)c1ccc(Cl)cc1 (stereo unspecified)  solubility (mole fraction)        0.0009
